# Test system: THP-1 cell viability, cytotoxicity
# methodDescription: cytotoxicity in THP-1 cells, cytotoxicity control, cell-based (AID 504640)
assayEndpoint: CC50

compound: COC(=O)C(Nc1nc(SCC(=O)NC2CCCCC2)nc2ccccc12)c1ccccc1 (stereo unspecified)
CC50: 50.4 µM

compound: CC(C)NC(=O)c1sc(=S)n2c1[nH]c(=O)c1ccc(C(=O)NCCc3ccc(Cl)cc3)cc12
CC50: 52.8 µM

compound: Cc1ccc(C(=O)N/N=C(/CC(=O)c2cccs2)C(F)(F)F)cc1
CC50: 40.4 µM

compound: CNc1nc(SCc2ccccc2Cl)nc2c1CCCC2
CC50: 28 µM

compound: CCOC(=O)c1ccc(NC(=O)Cn2ncc(Cl)c(Cl)c2=O)cc1
CC50: 0.88 µM

--- query ---
Exam item: For Cc1cccc(-c2oc3ccc(-c4ccc5c(c4)OCO5)cc3c2C#Cc2cncn2C)c1 , what is its reported CC50?
Marked response: 35.9 µM
